Protocol Summary: in vivo
Set-up: species or system Hunde (Beagle)
Experimental Context: dog, po, 5 mg/kg
Metric Name: Cmax (ng/mL)

                                   compound  metric_name  quantity_unit  value_measured
0  N#Cc1c(N2C[C@@H]3CCCN[C@@H]3C2)c(F)cc2c(=O)c(C(=O)O)cn(C3CC3)c12 [Beispiel 1]         Cmax          ng/mL            1300
1  CCN1CCN(c2cc3c(cc2F)c(=O)c(C(=O)O)cn3C2CC2)CC1 [Enrofloxacin]         Cmax          ng/mL            1000

----------
Protocol Summary: in vivo
Parameters: species or system Hunde (Beagle)
Experimental Context: dog, im, 5 mg/kg
Metric Name: Cmax (ng/mL)

>>> print(df.to_string())
                                   compound  metric_name  quantity_unit  value_measured
0  N#Cc1c(N2C[C@@H]3CCCN[C@@H]3C2)c(F)cc2c(=O)c(C(=O)O)cn(C3CC3)c12 [Beispiel 1]         Cmax          ng/mL            2400
1  CCN1CCN(c2cc3c(cc2F)c(=O)c(C(=O)O)cn3C2CC2)CC1 [Enrofloxacin]         Cmax          ng/mL            2100

----------
Protocol Summary: in vivo
Set-up: species or system Hunde (Beagle)
Experimental Context: dog, im, 5 mg/kg
Recorded MRT for the following compounds
Metric Name: MRT (h)

>>> print(df.to_string())
                         compound_structure  metric_name  quantity_unit  value_measured
0  CCN1CCN(c2cc3c(cc2F)c(=O)c(C(=O)O)cn3C2CC2)CC1          MRT              h             3.9
1  N#Cc1c(N2C[C@@H]3CCCN[C@@H]3C2)c(F)cc2c(=O)c(C(=O)O)cn(C3CC3)c12          MRT              h             8.5

----------
Protocol Summary: in vivo
Design: species or system Hunde (Beagle)
Experimental Context: dog, po, 5 mg/kg
Recorded AUC(0-t) at 24 h for the following molecules
Metric Name: AUC(0-t) at 24 h (ng·h/mL)

In [3]: df
Out[3]:
                         compound_structure  value_measured
0  CCN1CCN(c2cc3c(cc2F)c(=O)c(C(=O)O)cn3C2CC2)CC1            7000
1  N#Cc1c(N2C[C@@H]3CCCN[C@@H]3C2)c(F)cc2c(=O)c(C(=O)O)cn(C3CC3)c12           17400

----------
Protocol Summary: in vivo
Set-up: species or system Hunde (Beagle)
Experimental Context: dog, im, 5 mg/kg
Recorded half-life for the following compounds
Metric Name: half-life (h)

>>> df
                         compound_structure  quantity_unit  value_measured
0  N#Cc1c(N2C[C@@H]3CCCN[C@@H]3C2)c(F)cc2c(=O)c(C(=O)O)cn(C3CC3)c12              h             6.9
1  CCN1CCN(c2cc3c(cc2F)c(=O)c(C(=O)O)cn3C2CC2)CC1              h             2.9
